Test: Stability in human plasma
Type: in vitro ADME
Conditions: 2 μM peptidomimetic, pooled human plasma, 37° C., 24 h
Non-standard residues stand in square brackets, D forms with d. Residues, ends and D or L forms follow the SMILES beside them. ξ: configuration not given here. Leu(5,5,5,5',5',5'-F6) = N[C@@H](CC(C(F)(F)F)C(F)(F)F)C(=O)O; ξBip(2'-Et-4'-OMe) = CCc1cc(OC)ccc1-c1ccc(CC(N)C(=O)O)cc1; ξNva(5-(3-Cl-Ph)) = NC(CCCc1cccc(Cl)c1)C(=O)O; ξαMePhe(2-F) = CC(N)(Cc1ccccc1F)C(=O)O; Aib = CC(C)(N)C(=O)O
property.name: % degradation of peptidomimetics in 24 h when incubated with human plasma (%)
Provide the reading as a plain figure in %.

compound	value
CCc1cc(OC)ccc1-c1ccc(CC(NC(=O)[C@H](CC(=O)O)NC(=O)[C@H](CO)NC(=O)[C@@H](NC(=O)[C@H](Cc2ccccc2)NC(=O)[C@@H](NC(=O)CNC(=O)C(CCC#N)NC(=O)C(C)(C)NC(=O)[C@@H](N)Cc2c[nH]cn2)[C@@H](C)O)[C@@H](C)O)C(=O)NC(CCCc2ccccc2Cl)C(N)=O)cc1 (single isomer, unassigned)	00
CCc1cc(OC)ccc1-c1ccc(CC(NC(=O)[C@H](CC(=O)O)NC(=O)[C@H](CO)NC(=O)[C@@H](NC(=O)C(C)(Cc2ccccc2F)NC(=O)[C@@H](NC(=O)CNC(=O)C(CCC#N)NC(=O)C(C)(C)NC(=O)[C@@H](N)Cc2c[nH]cn2)[C@H](C)O)[C@H](C)O)C(=O)NC(CCCc2ccccc2)C(N)=O)cc1 (single isomer, unassigned)	00
CCc1cc(OC)ccc1-c1ccc(CC(CNC(CCCc2ccccc2F)C(N)=O)NC[C@H](CC(=O)O)NC(=O)[C@H](CO)NC(=O)[C@@H](NC(=O)C(C)(Cc2ccccc2F)NC(=O)[C@@H](NC(=O)CNC(=O)C(CCC#N)NC(=O)C(C)(C)NC(=O)[C@@H](N)Cc2c[nH]cn2)[C@H](C)O)[C@H](C)O)cc1 (single isomer, unassigned)	00
CCc1cc(OC)ccc1-c1ccc(CC(NC(=O)[C@H](CC(=O)O)NC(=O)[C@H](CO)NC(=O)[C@@H](NC(=O)C(C)(Cc2ccccc2F)NC(=O)[C@@H](NC(=O)CNC(=O)[C@H](CC(C(F)(F)F)C(F)(F)F)NC(=O)C(C)(C)NC(=O)[C@@H](N)Cc2c[nH]cn2)[C@@H](C)O)[C@@H](C)O)C(=O)NC(CCCc2cccc(Cl)c2)C(N)=O)cc1 (stereo partly shown) [compound 236] (H-H[Aib][Leu(5,5,5,5',5',5'-F6)]GT[ξαMePhe(2-F)]TSD[ξBip(2'-Et-4'-OMe)][ξNva(5-(3-Cl-Ph))]-NH2)	00
CCc1cc(OC)ccc1-c1ccc(CC(NC(=O)[C@H](CC(=O)O)NC(=O)[C@H](CO)NC(=O)[C@@H](NC(=O)C(C)(Cc2ccccc2F)NC(=O)[C@@H](NC(=O)CNC(=O)C(CCC#N)NC(=O)C(C)(C)NC(=O)[C@@H](N)Cc2c[nH]cn2)[C@H](C)O)[C@H](C)O)C(=S)NC(CCCc2ccccc2)C(N)=O)cc1 (single isomer, unassigned)	70
CCc1cc(OC)ccc1-c1ccc(CC(NC(=O)[C@H](CC(=O)O)NC(=O)[C@H](CO)NC(=O)[C@@H](NC(=O)[C@H](Cc2ccccc2)NC(=O)[C@@H](NC(=O)CNC(=O)C(CCC#N)NC(=O)C(C)(C)NC(=O)[C@@H](N)Cc2c[nH]cn2)[C@@H](C)O)[C@@H](C)O)C(=O)NC(CCCc2ccc(OC)cc2Cl)C(N)=O)cc1 (single isomer, unassigned)	00

Please find the next compound below.
Request: Could you share which % degradation of peptidomimetics in 24 h when incubated with human plasma value was measured for CCc1cc(OC)ccc1-c1ccc(CC(NC(=O)[C@H](CC(=O)O)NC(=O)[C@H](CO)NC(=O)[C@@H](NC(=O)C(C)(Cc2ccccc2F)NC(=O)[C@@H](NC(=O)CNC(=O)C(CCC#N)NC(=O)C(C)(C)NC(=O)[C@@H](N)Cc2c[nH]cn2)[C@H](C)O)[C@H](C)O)C(=O)N(C)C(CCCc2ccccc2)C(N)=O)cc1 (single isomer, unassigned) ?
Result: 78

----------
// reported % degradation of peptidomimetics in 24 h when incubated with simulated intestinal fluid per item
Assay: Stability in simulated intestinal fluid
Type: in vitro ADME
Details: 2 μM peptidomimetic, simulated intestinal fluid pH 7.5, 37° C., 24 h
Starred links: 1 amine or outer side, 2 acyl side, 3 side chain; linkers in the order of their positions; H or OH if unused. Non-standard residues stand in square brackets, D forms with d. Residues, ends and D or L forms follow the SMILES beside them. ξ: configuration not given here. *: point of attachment. X3 = CCc1cc(OC)ccc1-c1ccc(CC(N*)C(=S)NC(CCCc2ccccc2)C(N)=O)cc1; Leu(5,5,5,5',5',5'-F6) = N[C@@H](CC(C(F)(F)F)C(F)(F)F)C(=O)O; ξBip(2'-Et-4'-OMe) = CCc1cc(OC)ccc1-c1ccc(CC(N)C(=O)O)cc1; ξNva(5-(3,5-Me2-Ph)) = Cc1cc(C)cc(CCCC(N)C(=O)O)c1; X1 = O=C(C(CCCc1ccc(C(F)(F)F)cc1F)N[*:1])[*:2]; ξαMePhe(2-F) = CC(N)(Cc1ccccc1F)C(=O)O; aThr = C[C@H](O)[C@H](N)C(=O)O; Aib = CC(C)(N)C(=O)O
Provide the reading as a plain figure in %.

Request: Could you share which % degradation of peptidomimetics in 24 h when incubated with simulated intestinal fluid value was measured for CCc1cc(OC)ccc1-c1ccc(CC(NC(=O)[C@H](CC(=O)O)NC(=O)[C@H](CO)NC(=O)[C@@H](NC(=O)C(C)(Cc2ccccc2F)NC(=O)[C@@H](NC(=O)CNC(=O)[C@H](CC(C(F)(F)F)C(F)(F)F)NC(=O)C(C)(C)NC(=O)[C@@H](N)Cc2c[nH]cn2)[C@H](C)O)[C@H](C)O)C(=S)NC(CCCc2ccccc2)C(N)=O)cc1 (stereo partly drawn) [compound 219] (H-H[Aib][Leu(5,5,5,5',5',5'-F6)]G[aThr][ξαMePhe(2-F)][aThr]SD-X3) ?
Result: 00

Request: Could you share which % degradation of peptidomimetics in 24 h when incubated with simulated intestinal fluid value was measured for CCc1cc(OC)ccc1-c1ccc(CC(NC(=O)[C@H](CC(=O)O)NC(=O)[C@H](CO)NC(=O)[C@@H](NC(=O)[C@H](Cc2ccccc2)NC(=O)[C@@H](NC(=O)CNC(=O)[C@H](CCC(N)=O)NC(=O)C(C)(C)NC(=O)[C@@H](N)Cc2c[nH]cn2)[C@@H](C)O)[C@@H](C)O)C(=O)NC(CCCc2ccc(C(F)(F)F)cc2F)C(N)=O)cc1 (stereo partly drawn) [compound 65] (H-H[Aib]QGTFTSD[ξBip(2'-Et-4'-OMe)][X1]-NH2) ?
Result: 43

Request: Could you share which % degradation of peptidomimetics in 24 h when incubated with simulated intestinal fluid value was measured for CCc1cc(OC)ccc1-c1ccc(CC(NC(=O)[C@H](CC(=O)O)NC(=O)[C@H](CO)NC(=O)[C@@H](NC(=O)[C@H](Cc2ccccc2)NC(=O)[C@@H](NC(=O)CNC(=O)[C@H](CCC(N)=O)NC(=O)[C@H](C)NC(=O)[C@@H](N)Cc2c[nH]cn2)[C@@H](C)O)[C@@H](C)O)C(=O)NC(CCCc2cc(C)cc(C)c2)C(N)=O)cc1 (stereo partly drawn) [compound 14] (H-HAQGTFTSD[ξBip(2'-Et-4'-OMe)][ξNva(5-(3,5-Me2-Ph))]-NH2) ?
Result: 46

----------
Test: Stability in simulated intestinal fluid
Type: in vitro ADME
Conditions: 2 μM peptidomimetic, simulated intestinal fluid pH 7.5, 37° C.; read-out: half-life (t1/2) when incubated with simulated intestinal fluid
Non-standard residues stand in square brackets, D forms with d. Residues, ends and D or L forms follow the SMILES beside them. ξ: configuration not given here. ξNMeBip(2'-Et,4'-OMe) = CCc1cc(OC)ccc1-c1ccc(CC(NC)C(=O)O)cc1; Leu(5,5,5,5',5',5'-F6) = N[C@@H](CC(C(F)(F)F)C(F)(F)F)C(=O)O; ξBip(2'-Et-4'-OMe) = CCc1cc(OC)ccc1-c1ccc(CC(N)C(=O)O)cc1; ξNMeNva(5-(2-F-Ph)) = CNC(CCCc1ccccc1F)C(=O)O; ξNva(5-(3-Cl-Ph)) = NC(CCCc1cccc(Cl)c1)C(=O)O; ξαMePhe(2-F) = CC(N)(Cc1ccccc1F)C(=O)O; NMeD = CN[C@@H](CC(=O)O)C(=O)O; aThr = C[C@H](O)[C@H](N)C(=O)O; Aib = CC(C)(N)C(=O)O
property.name: half-life at 2 μM

Recorded half-life at 2 μM, per entry:
compound	half-life at 2 μM
CCc1cc(OC)ccc1-c1ccc(CC(C(=O)N(C)C(CCCc2ccccc2F)C(N)=O)N(C)C(=O)[C@H](CC(=O)O)N(C)C(=O)[C@H](CO)NC(=O)[C@@H](NC(=O)C(C)(Cc2ccccc2F)NC(=O)[C@@H](NC(=O)CNC(=O)[C@H](CC(C(F)(F)F)C(F)(F)F)NC(=O)C(C)(C)NC(=O)[C@@H](N)Cc2c[nH]cn2)[C@H](C)O)[C@H](C)O)cc1 (stereo partly drawn) [compound 221] (H-H[Aib][Leu(5,5,5,5',5',5'-F6)]G[aThr][ξαMePhe(2-F)][aThr]S[NMeD][ξNMeBip(2'-Et,4'-OMe)][ξNMeNva(5-(2-F-Ph))]-NH2)	> 24 h
CCc1cc(OC)ccc1-c1ccc(CC(NC(=O)[C@H](CC(=O)O)NC(=O)[C@H](CO)NC(=O)[C@@H](NC(=O)C(C)(Cc2ccccc2F)NC(=O)[C@@H](NC(=O)CNC(=O)[C@H](CC(C(F)(F)F)C(F)(F)F)NC(=O)C(C)(C)NC(=O)[C@@H](N)Cc2c[nH]cn2)[C@@H](C)O)[C@@H](C)O)C(=O)NC(CCCc2cccc(Cl)c2)C(N)=O)cc1 (stereo partly drawn) [compound 236] (H-H[Aib][Leu(5,5,5,5',5',5'-F6)]GT[ξαMePhe(2-F)]TSD[ξBip(2'-Et-4'-OMe)][ξNva(5-(3-Cl-Ph))]-NH2)	> 24 h

Please find the next compound below.
Request: Could you share which half-life at 2 μM value was measured for CCc1cc(OC)ccc1-c1ccc(CC(CNC(CCCc2ccccc2)C(N)=O)NC(=O)[C@H](CC(=O)O)NC(=O)[C@H](CO)NC(=O)[C@@H](NC(=O)C(C)(Cc2ccccc2F)NC(=O)[C@@H](NC(=O)CNC(=O)C(CCC#N)NC(=O)C(C)(C)NC(=O)[C@@H](N)Cc2c[nH]cn2)[C@H](C)O)[C@H](C)O)cc1 (single isomer, unassigned) ?
Result: > 24 h
